- EXPERIMENT_NOTES: Polarographic study of electrochemical reduction (electrochemical activity)
- Type: physicochemical
- DETAILS: pH 7.0; 37° C.; forward trace; average for the group
PARAMETER: −E1/2, V (half-wave potential vs SCE) (V)
Enter your answer as a number in V; do not include the unit.

{"COMPOUND": "COP(=O)(OC)C(C)(C)CC(C)=O [dimephosphon, reference compound]", "OBSERVED_RESULT": 0.175}
{"COMPOUND": "O=c1[nH]n([C@@H]2O[C@H](CO)[C@@H](O)[C@H]2O)c(=O)c2nc(O)cnc12.[Na].[Na]", "OBSERVED_RESULT": 0.16}
{"COMPOUND": "O=C([O-])c1ccc2c(=O)[nH][nH]c(=O)c2c1.O=C([O-])c1ccc2c(=O)[nH][nH]c(=O)c2c1.[Na+].[Na+]", "OBSERVED_RESULT": 0.092}

API: the following record is the query input.
Request: Input Nc1cccc2c(=O)[nH][nH]c(=O)c12.[Na] , output reported −E1/2, V (half-wave potential vs SCE).
Response: 0.092

====

- System: aggregation of thrombocytes
- EXPERIMENT_NOTES: ADP-induced aggregation of thrombocytes after intravenous administration (in vivo)
- Parameters: species or system rabbit
- DETAILS: dose 60.0 mg/kg intravenously
PARAMETER: MA, %, After 120 minutes (%)
Give just the numeric value; % need not be written.

Illustrative cases are given below, each with its answer.
{"SMILES_NOTATION": "Nc1cccc2c(=O)[nH][nH]c(=O)c12.[Na]", "OBSERVED_RESULT": 47.2}
{"SMILES_NOTATION": "Nc1ccnc2c(=O)n([C@@H]3O[C@H](CO)[C@@H](O)[C@H]3O)[nH]c(=O)c12", "OBSERVED_RESULT": 48.0}

Request: Supply measured MA, %, After 120 minutes of Nc1cnc2c(=O)n([C@@H]3O[C@H](CO)[C@@H](O)[C@H]3O)[nH]c(=O)c2n1.[Na] in your reply.
Response: 48.3

Request: Look up and state reported MA, %, After 120 minutes for O=c1[nH][nH]c(=O)c2c(Br)ncnc12.[K]
Response: 47.3

====

// reported T, s after 15 minutes (prothrombin time) for each item listed
- Tested on: plasma hemostasis
- EXPERIMENT_NOTES: Prothrombin time after intravenous administration
- Format: in vivo, rabbit
- DETAILS: dose 30.0 mg/kg intravenously
- Protocol: The investigations were performed on 72 rabbits of the “Chinchilla” breed with a mass of 2.5±0.3 kg, who were administered which solutions of compounds 2, 15, 21, 37 in doses of 15, 30 and 60 mg/kg intravenously. The experiments included the thrombin-test (series No. 7300) and the coagulability-test (series No. 5000) purchased from the scientific-and-production association (SPA) “Renam”, thromboplastin (series No. 240600) and calcium chloride purchased from the SPA “MedioLab” […]
Value expressed in s; do not type the unit.

Example results:
{"COMPOUND": "Nc1cnc2c(=O)n([C@@H]3O[C@H](CO)[C@@H](O)[C@H]3O)[nH]c(=O)c2n1.[Na] [Compound 21]", "TARGET_OR_SYSTEM": "plasma hemostasis", "T, s after 15 minutes (prothrombin time), s": 11.2}
{"COMPOUND": "O=c1[nH][nH]c(=O)c2c(Br)ncnc12.[K] [Compound 37]", "TARGET_OR_SYSTEM": "plasma hemostasis", "T, s after 15 minutes (prothrombin time), s": 11.3}
{"COMPOUND": "Nc1ccnc2c(=O)n([C@@H]3O[C@H](CO)[C@@H](O)[C@H]3O)[nH]c(=O)c12 [Compound 2]", "TARGET_OR_SYSTEM": "plasma hemostasis", "T, s after 15 minutes (prothrombin time), s": 11.1}

For the next question, use this compound.
Request: Write down measured T, s after 15 minutes (prothrombin time) (plasma hemostasis) for this compound. Nc1cccc2c(=O)[nH][nH]c(=O)c12.[Na] [Compound 15]
Response: 11.0
